Origin of the recorded values: patent US20250161338A1

- Tested on: prototrophic yeast strain (CEN.PK113-7D)
- assay.summary: Propidium iodide fluorescence-based CLS method in yeast (incl. high-throughput screening)
- Type: cell-based, Saccharomyces cerevisiae
- condition.description: concentration tested 100 μM; Yes/No call of the screen
Counter-ions that a name gives are not always drawn.
measured.attribute: Yeast CLS increase

O=C(O)/C=C/CCCCCCCO [Royal Jelly acid]: No
C[C@]12CCC(=O)C=C1C=C[C@@H]1[C@@H]2CC[C@@]2(C)[C@H]1CC[C@@]21CCC(=O)O1 [Canrenone, reference compound]: No
Cc1cc2nc3c(=O)[nH]c(=O)nc-3n(C[C@H](O)[C@H](O)[C@H](O)COP(=O)(O)OP(=O)(O)OC[C@H]3O[C@@H](n4cnc5c(N)ncnc54)[C@H](O)[C@@H]3O)c2cc1C [(disodium salt)]: No

###

- Test system: prototrophic yeast strain (CEN.PK113-7D)
- assay.summary: Propidium iodide fluorescence-based CLS method in yeast (incl. high-throughput screening);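 on PI intensity: untreated reference is eight DMSO and water control wells per plate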
- Format: cell-based, Saccharomyces cerevisiae
- condition.description: concentration tested 100 μM; solvent DMSO or water; chronological age point Day 7 (72 h growth = Day 1); lower = more survival
Counter-ions that a name gives are not always drawn.
measured.attribute: PI intensity

Tell me its PI intensity given C=C[C@@H]1C2=CCOC(=O)C2=CO[C@H]1O[C@@H]1O[C@H](CO)[C@@H](O)[C@H](O)[C@H]1O [Gentiopicroside] as the entry.
59,804.7

Tell me its PI intensity given CCOC(=O)c1ccc(O)cc1 [Ethylparaben] as the entry.
52,097.7

Tell me its PI intensity given O=c1ccc2cc(O[C@@H]3O[C@H](CO)[C@@H](O)[C@H](O)[C@H]3O)c(O)cc2o1 [Esculin] as the entry.
72,890.7

Tell me its PI intensity given CN[C@@H]1C[C@H]2O[C@@](C)([C@@H]1OC)n1c3ccccc3c3c4c(c5c6ccccc6n2c5c31)C(=O)NC4 [Staurosporine] as the entry.
67,250.9

Tell me its PI intensity given CC(C)CCC[C@](C)(O)[C@H]1CC[C@H]2[C@@H]3CC=C4C[C@@H](O)CC[C@]4(C)[C@H]3CC[C@@]21C [20(S)-Hydroxycholesterol] as the entry.
75,450.9

Tell me its PI intensity given O=[N+]([O-])C(Br)(CO)CO [Bronopol] as the entry.
79,284.9

Tell me its PI intensity given CCC[C@@H]1C[C@@H](C(=O)N[C@@H]([C@H]2O[C@H](SC)[C@H](O)[C@@H](O)[C@H]2O)[C@@H](C)O)N(C)C1 [Lincomycin (hydrochloride monohydrate), reference compound] as the entry.
67,751.3

Tell me its PI intensity given Cl.N[C@@H](CS)C(=O)O.O [L-Cysteine (hydrochloride hydrate)] as the entry.
69,216.4

Tell me its PI intensity given O=C(/C=C/c1ccc(O)c(O)c1)O[C@@H]1C[C@](O)(C(=O)O)C[C@@H](O)[C@H]1O [Chlorogenic acid] as the entry.
66,593.5

Tell me its PI intensity given CC(=O)O[C@H]1CC[C@H]2[C@@H]3CCc4cc(O)ccc4[C@H]3CC[C@]12C [β-Estradiol 17-acetate] as the entry.
34,621.0

Tell me its PI intensity given O=c1ccn([C@@H]2O[C@H](CO)[C@@H](O)[C@H]2O)c(=O)[nH]1 [Uridine] as the entry.
84,894.9

Tell me its PI intensity given COc1ccc(C=CC(=O)O)cc1OC [3,4-Dimethoxycinnamic acid] as the entry.
70,914.2
